Entry source: patent US11998606B2

Experiment: Single dose intraperitoneal pharmacokinetics in CD-1 mice, plasma concentration by HPLC-MS
Assay type: in vivo
Conditions: female, CD-1, mouse, ip, 10 mg/kg, 24 hr, 10 mg/kg IP, CD-1 mice, n=3, read-out: Mean concentration
READOUT KIND: concentration at 24 h (nM)
Just the number in nM, nothing appended.

The value of concentration at 24 h measured for the molecule CC#C[C@]1(O)CC[C@H]2[C@@H]3CCC4=CC(=O)CCC4=C3[C@@H](c3ccc(N(C)CCCC(=O)N4CCN(C(=O)OC(C)(C)C)CC4C(=O)N4CCN(C(=O)OC(C)(C)C)CC4C(=O)NCCCOCCOCCOCCCNc4cccc5c4C(=O)N(C4CCC(=O)NC4=O)C5=O)cc3)C[C@@]21C (stereo partly shown) [Example 3] turned out to be 521
